B1: TRIM35 (parent)
chain: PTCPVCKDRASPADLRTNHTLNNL

# Variants of: B1
# procedure.text: protein stability index of a GFP-peptide fusion (GPS, HEK-293T) (PSI 1-6); higher = more stable;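 further: lentivirally expressed fusions sorted by FACS into six bins by GFP to DsRed ratio, PSI derived from sequencing read proportions per bin multiplied by bin number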
# details: c terminus: a fixed tail appended
recorded.metric: protein stability index
Please respond with just the number, no unit label.

N23G
2.92
C3E
4.06
A13D
3.13
C3Q
4.24
C3R
4.46
L15M
2.9

Ask: Which protein stability index is listed for `A13H` ?
Result: 3.1

Ask: # get_value(readout='protein stability index', item= `N22I` )
Result: 2.65
